- protocol_conditions: in 1,4-dioxane, 298.15 K
assay_metric: solubility (mole fraction)

smiles_record: Nc1nc(Cl)c2[nH]cnc2n1
assay_value: 0.000112

---

- protocol_conditions: in n-butanol, 293.15 K

smiles_record: Nc1nc(Cl)c2[nH]cnc2n1
solubility (mole fraction): 0.00021

---

- protocol_conditions: in water, 333.15 K
assay_metric: solubility (mole fraction)

smiles_record: Nc1nc(Cl)c2[nH]cnc2n1
assay_value: 8.62e-05

---

- protocol_conditions: in ethylene glycol, 313.15 K
assay_metric: solubility (mole fraction)

smiles_record: Nc1nc(Cl)c2[nH]cnc2n1
assay_value: 0.0013

---

- protocol_conditions: in 2-butanone, 298.15 K

smiles_record: Nc1nc(Cl)c2[nH]cnc2n1
solubility (mole fraction): 0.000352
